The entries below are paired with their reported Plant response rating, Ryegrass, Italian.
- Test system: Italian ryegrass (Lolium multiflorum)
- Experiment: Test B pre-/postemergence plant response
- Type: in vivo
- Measurement setup: Preemergence, 62 g ai/ha; scale 0 to 100
Respond numerically, and do not add a unit to the figure.

For orientation, consider the following solved cases.
Cc1cc(-c2ccc(Br)cc2)nn1-c1c(OC(=O)OC(C)C)cnn(C)c1=O [Compound 6] :: 100
Cc1cc(-c2ccc(Cl)cc2)nn1-c1c(OC(=O)C(C)C)cnn(C)c1=O [Compound 34] :: 100
CCc1cc(-c2ccc(Cl)c(Cl)c2)nn1-c1c(O)cnn(C)c1=O [Compound 20] :: 90

// Plant response rating, Ryegrass, Italian value for CCc1cc(-c2ccc(Cl)cc2)nn1-c1c(OC(=O)C(C)(C)C)cnn(C)c1=O [Compound 40] : 100

Recorded result, Cn1ncc(O)c(-c2nn(-c3ccc(Cl)cc3)cc2Cl)c1=O [Compound 28] , Plant response rating, Ryegrass, Italian: 100

* * *

- System: corn (Zea mays)
- Experiment: Test B pre-/postemergence plant response
- Type: in vivo
- Measurement setup: 8 g ai/ha, postemergence; 0-100 scale
Listed next: entries and their corresponding Corn plant response rating.
// return a plain number; no unit text

Would you please look over these solved cases?
Cc1cc(-c2ccc(Br)cc2)nn1-c1c(O)cn[nH]c1=O [Compound 78] :: 40
Cc1cc(-c2ccc(Cl)cc2)nn1-c1c(OC(=O)c2ccccc2)cnn(C)c1=O [Compound 48] :: 90
CCc1c(C)c(-c2ccc(Cl)cc2)nn1-c1c(O)cnn(C)c1=O [Compound 26] :: 0

Below: the item to evaluate.
Quick note, Corn plant response rating for CCc1cc(-c2ccc(Cl)c(Cl)c2)nn1-c1c(O)cnn(C)c1=O [Compound 20] landed at 0

* * *

# Plant response rating, Foxtail, Giant per entry
- Tested on: giant foxtail (Setaria faberii)
- Experiment: Test B pre-/postemergence plant response
- Assay type: in vivo
- Measurement setup: Preemergence, 16 g ai/ha; scale 0 to 100 (0 no effect, 100 complete control)
Output: the number by itself.

Sample records with Plant response rating, Foxtail, Giant:
Cc1cc(-c2ccc(Cl)cc2)nn1-c1c(OC(=O)c2ccccc2)cnn(C)c1=O :: 0
CCc1cc(-c2ccc(C(F)(F)F)cc2)nn1-c1c(OS(C)(=O)=O)cnn(C)c1=O :: 100
Cn1ncc(O)c(-c2nn(-c3ccc(Cl)cc3)cc2Cl)c1=O :: 98

Entry `COC(=O)Oc1cnn(C)c(=O)c1-n1nc(-c2ccc(Cl)cc2)cc1C` , Plant response rating, Foxtail, Giant reported as 100

* * *

- System: kochia (Kochia scoparia)
- Experiment: Test B pre-/postemergence plant response
- Assay type: in vivo
- Measurement setup: Preemergence, 16 g ai/ha; scale 0 to 100 (0 no effect, 100 complete control)
Measured quantity: Plant response rating, Kochia
Please respond with just the number, no unit label.

# count of solved cases: 5
CCc1cc(-c2ccc(Cl)cc2)nn1-c1c(OC(=O)C(C)(C)C)cnn(C)c1=O :: 0
Cn1ncc(O)c(-c2nn(-c3ccc(Cl)cc3)cc2Br)c1=O :: 0
Cc1cc(-c2ccc(Cl)cc2)nn1-c1c(OC(=O)C(C)C)cnn(C)c1=O :: 0
CCc1cc(-c2ccc(Cl)cc2)nn1-c1c(OC(=O)OC(C)C)cnn(C)c1=O :: 0
CCc1cc(-c2ccc(Cl)cc2)nn1-c1c(OS(C)(=O)=O)cnn(C)c1=O :: 0

Continue with the next compound.
Value of measured Plant response rating, Kochia for the entry `Cc1cn(-c2ccc(Cl)cc2)nc1-c1c(O)cnn(C)c1=O` : 0
